These data points were gathered from ChEMBL document CHEMBL1649119.

Test: Clearance in healthy human at 4 mg/kg, iv administered as 30 mins infusion every 24 hrs measured on day 1
Format: ADME, organism-based
Parameters: dose 4 mg/kg, route intravenous
Settings: in vivo
measurementName: clearance (mL/min/kg)
Report only the number, with the unit mL/min/kg understood.

Query: Record request: clearance value, item CCCCCCCCCC(=O)N[C@@H](Cc1c[nH]c2ccccc12)C(=O)N[C@H](CC(N)=O)C(=O)N[C@@H](CC(=O)O)C(=O)N[C@@H]1C(=O)NCC(=O)N[C@@H](CCCN)C(=O)N[C@@H](CC(=O)O)C(=O)N[C@H](C)C(=O)N[C@@H](CC(=O)O)C(=O)NCC(=O)N[C@H](CO)C(=O)N[C@@H]([C@H](C)CC(=O)O)C(=O)N[C@@H](CC(=O)c2ccccc2N)C(=O)O[C@@H]1C
Response: 0.16

###

Experiment: Volume of distribution at steady state in adult human with hepatic impairment at 6 mg/kg, iv administered as single dose 30 mins infusion
Format: ADME, organism-based
Set-up: dose 6 mg/kg, route intravenous
Settings: in vivo, read-out: Vdss
measurementName: Vd (L/kg)
Report as a plain number; the unit L/kg is understood.

Query: Given the entry CCCCCCCCCC(=O)N[C@@H](Cc1c[nH]c2ccccc12)C(=O)N[C@H](CC(N)=O)C(=O)N[C@@H](CC(=O)O)C(=O)N[C@@H]1C(=O)NCC(=O)N[C@@H](CCCN)C(=O)N[C@@H](CC(=O)O)C(=O)N[C@H](C)C(=O)N[C@@H](CC(=O)O)C(=O)NCC(=O)N[C@H](CO)C(=O)N[C@@H]([C@H](C)CC(=O)O)C(=O)N[C@@H](CC(=O)c2ccccc2N)C(=O)O[C@@H]1C , report its measured Vd.
Response: 0.08

###

Assay: Renal clearance in old healthy human at 4 mg/kg, iv administered as single dose 30 mins infusion
Type: ADME, organism-based, Kidney
Design: dose 4 mg/kg, route intravenous
Conditions: in vivo, read-out: CL_renal (converted)
measurementName: CL renal at 0.5 h (mL/h/kg)
Kindly provide the numeric value in mL/h/kg only, without the unit symbol.

Query: May I ask what CL renal at 0.5 h has been recorded for CCCCCCCCCC(=O)N[C@@H](Cc1c[nH]c2ccccc12)C(=O)N[C@H](CC(N)=O)C(=O)N[C@@H](CC(=O)O)C(=O)N[C@@H]1C(=O)NCC(=O)N[C@@H](CCCN)C(=O)N[C@@H](CC(=O)O)C(=O)N[C@H](C)C(=O)N[C@@H](CC(=O)O)C(=O)NCC(=O)N[C@H](CO)C(=O)N[C@@H]([C@H](C)CC(=O)O)C(=O)N[C@@H](CC(=O)c2ccccc2N)C(=O)O[C@@H]1C ?
Response: 4.27

###

Experiment: Apparent volume of distribution during terminal phase in healthy human subjects at 12 mg/kg, iv administered as 30 mins infusion every 24 hrs measured on day 1
Format: ADME, organism-based
Design: dose 12 mg/kg, route intravenous
Conditions: in vivo
measurementName: Vd (L/kg)
Write the value in L/kg as a bare number.

Query: Fill blank: measured Vd of the molecule CCCCCCCCCC(=O)N[C@@H](Cc1c[nH]c2ccccc12)C(=O)N[C@H](CC(N)=O)C(=O)N[C@@H](CC(=O)O)C(=O)N[C@@H]1C(=O)NCC(=O)N[C@@H](CCCN)C(=O)N[C@@H](CC(=O)O)C(=O)N[C@H](C)C(=O)N[C@@H](CC(=O)O)C(=O)NCC(=O)N[C@H](CO)C(=O)N[C@@H]([C@H](C)CC(=O)O)C(=O)N[C@@H](CC(=O)c2ccccc2N)C(=O)O[C@@H]1C is ____.
Response: 0.111
